Kindly supply the reported IC50 values for the records listed here.
# target_under_test: TXK (Homo sapiens (Human), UniProt P42681)
# Sequence (P42681 whole entry, species assumed): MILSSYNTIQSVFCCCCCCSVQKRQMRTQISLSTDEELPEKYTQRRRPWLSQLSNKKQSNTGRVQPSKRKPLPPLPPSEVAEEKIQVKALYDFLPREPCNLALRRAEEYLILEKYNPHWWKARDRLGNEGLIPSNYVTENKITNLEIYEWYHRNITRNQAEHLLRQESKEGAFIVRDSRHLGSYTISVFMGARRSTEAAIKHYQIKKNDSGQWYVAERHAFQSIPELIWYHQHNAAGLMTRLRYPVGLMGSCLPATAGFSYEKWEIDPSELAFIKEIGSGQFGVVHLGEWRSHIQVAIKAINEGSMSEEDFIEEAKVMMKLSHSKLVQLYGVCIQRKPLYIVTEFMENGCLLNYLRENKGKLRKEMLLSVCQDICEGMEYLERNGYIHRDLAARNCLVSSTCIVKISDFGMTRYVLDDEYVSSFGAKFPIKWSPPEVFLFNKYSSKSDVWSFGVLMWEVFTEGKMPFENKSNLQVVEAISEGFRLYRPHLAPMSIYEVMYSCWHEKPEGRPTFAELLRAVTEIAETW
# test_summary: IC50 against TXK
# Assay type: biochemical

Previously resolved entries follow.
C=CC(=O)N1C[C@H]2CN(C(=O)c3cc(Sc4cnc(NC(=O)C5CC5)s4)c(C)cc3OC)C[C@H]21 ... 10 to 100 nM
C=CC(=O)N1CCCN(C(=O)c2cc(Sc3cnc(NC(=O)C4CC4)s3)c(C)cc2OC)[C@@H](C)C1 ... 1000 to 10000 nM
C=CC(=O)N1CCN(C(=O)c2cc(Sc3cnc(NC(=O)C4CC4)s3)c(C)cc2OC)C[C@H]1CC ... 10 to 100 nM
C=CC(=O)N1CCN(C(=O)c2cc(Sc3cnc(NC(=O)c4cccc(CN(C)C)c4)s3)c(C)cc2OC)C[C@H]1C ... 100 to 1000 nM
C=CC(=O)N1CCN(C(=O)c2cc(Sc3cnc(NC(=O)C4CC4)s3)c(Cl)cc2C)CC1 ... 10 to 100 nM

Hi, could you look up IC50 for each item in my list?
1. C=CC(=O)N1CCN(C(=O)c2cc(Sc3cnc(NC(C)=O)s3)c(C)cc2OC)CC1
2. C=CC(=O)N1CCCN(C(=O)c2cc(Sc3cnc(NC(=O)C4CCN(C)CC4)s3)c(C)cc2OC)CC1
3. C=CC(=O)N1CCCN(C(=O)c2cc(Sc3cnc(NC(=O)C4CC4)s3)c(C)cc2C)C[C@H]1CC
4. C=CC(=O)N1CCN(C(=O)c2cc(Sc3cnc(NC(=O)c4cnn(C)c4)s3)c(C)cc2OC)CC1
5. C=CC(=O)N1CCN(C(=O)c2cc(Sc3cnc(NC(=O)c4ccsc4)s3)c(C)cc2C)C[C@H]1CC

1: 100 to 1000 nM; 2: ≥ 10000 nM; 3: 100 to 1000 nM; 4: 10 to 100 nM; 5: 10 to 100 nM

----------
# target_under_test: JAK3 (Homo sapiens (Human), UniProt P52333)
# Sequence (P52333 whole entry, species assumed): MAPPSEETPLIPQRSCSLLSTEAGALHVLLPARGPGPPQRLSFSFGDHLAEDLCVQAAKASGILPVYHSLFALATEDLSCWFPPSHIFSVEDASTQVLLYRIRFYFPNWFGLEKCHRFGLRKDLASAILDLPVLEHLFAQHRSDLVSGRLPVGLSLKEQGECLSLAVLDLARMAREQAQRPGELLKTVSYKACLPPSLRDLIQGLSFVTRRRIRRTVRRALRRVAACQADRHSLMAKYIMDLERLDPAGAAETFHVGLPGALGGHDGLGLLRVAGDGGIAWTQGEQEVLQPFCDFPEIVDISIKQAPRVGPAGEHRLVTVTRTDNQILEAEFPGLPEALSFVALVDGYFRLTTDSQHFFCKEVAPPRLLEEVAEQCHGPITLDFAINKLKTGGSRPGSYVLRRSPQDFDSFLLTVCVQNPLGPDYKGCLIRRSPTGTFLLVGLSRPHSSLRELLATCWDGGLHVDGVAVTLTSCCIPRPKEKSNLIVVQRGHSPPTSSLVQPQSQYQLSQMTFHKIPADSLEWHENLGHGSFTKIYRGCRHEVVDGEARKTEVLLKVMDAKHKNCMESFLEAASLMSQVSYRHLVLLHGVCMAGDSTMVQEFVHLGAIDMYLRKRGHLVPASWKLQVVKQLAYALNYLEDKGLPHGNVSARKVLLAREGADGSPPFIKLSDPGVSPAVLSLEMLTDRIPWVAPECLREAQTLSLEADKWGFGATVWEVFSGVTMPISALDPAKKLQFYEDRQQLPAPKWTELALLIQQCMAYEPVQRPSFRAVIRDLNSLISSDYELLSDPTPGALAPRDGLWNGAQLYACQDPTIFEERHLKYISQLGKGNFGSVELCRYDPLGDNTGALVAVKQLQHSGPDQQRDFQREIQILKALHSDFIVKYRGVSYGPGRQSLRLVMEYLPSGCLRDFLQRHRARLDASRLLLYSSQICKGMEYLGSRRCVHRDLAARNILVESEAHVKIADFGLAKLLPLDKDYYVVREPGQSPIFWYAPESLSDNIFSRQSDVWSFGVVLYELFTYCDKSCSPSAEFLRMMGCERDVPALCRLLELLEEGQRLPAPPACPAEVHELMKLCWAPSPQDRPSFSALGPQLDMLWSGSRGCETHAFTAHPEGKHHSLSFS
# test_summary: IC50 against JAK3
# Assay type: biochemical
Kindly supply the reported IC50 values for the records listed here.

C=CC(=O)N1CCN(C(=O)c2cc(Sc3cnc(NC(=O)c4ccsc4)s3)c(C)cc2OC)CC1(C)C [Compound 141] ... 100 to 1000 nM

Hi, could you look up IC50 for each item in my list?
1. C=CC(=O)N1CCCN(C(=O)c2cc(Sc3cnc(NC(=O)c4cccc(CN(C)C)c4)s3)c(C)cc2OC)CC1 [Compound 33]
2. C=CC(=O)N1CCN(C(=O)c2cc(Sc3cnc(NC(=O)c4ccsc4)s3)c(C)cc2OC)[C@@H](C)C1 [Compound 144]
3. C=CC(=O)N1CCN(C(=O)c2cc(Sc3cnc(NC(C)=O)s3)c(C)cc2OC)[C@@H](C)C1 [Compound 9]
4. C=CC(=O)N1CCN(C(=O)c2cc(C(C)c3cnc(NC(=O)C4CC4)s3)c(C)cc2OC)CC1 (stereo not shown) [Compound 140]
5. C=CC(=O)N1CCCN(C(=O)c2cc(Sc3cnc(NC(=O)c4cccc(CN5CCOCC5)c4)s3)c(C)cc2OC)CC1 [Compound 49]
6. C=CC(=O)N1CCN(C(=O)c2cc(C(C)c3cnc(Nc4ccccn4)s3)c(C)cc2OC)CC1 (stereo not shown) [Compound 137]
7. C=CC(=O)N1CCCN(C(=O)c2cc(Sc3cnc(Nc4ccccn4)s3)c(C)cc2OC)C[C@H]1C(C)C [Compound 147]

1. 1000 to 10000 nM
2. 100 to 1000 nM
3. 100 to 1000 nM
4. 1000 to 10000 nM
5. 1000 to 10000 nM
6. 100 to 1000 nM
7. 1000 to 10000 nM

Hi, could you look up IC50 for each item in my list?
1. C=CC(=O)N1CCCN(C(=O)c2cc(Sc3cnc(Nc4ccccn4)s3)c(C)cc2OC)C[C@H]1C [Compound 103]
2. C=CC(=O)N1CCN(C(=O)c2cc(Sc3cnc(NC(=O)c4ccccn4)s3)c(C)cc2OC)CC1 [Compound 95]
3. C=CC(=O)N1C[C@H]2CN(C(=O)c3cc(Sc4cnc(NC(=O)C5CC5)s4)c(C)cc3OC)C[C@H]21 [Compound 52]
4. C=CC(=O)N1CCCN(C(=O)c2cc(Sc3cnc(NC(=O)C(C)(C)C)s3)c(C)cc2OC)CC1 [Compound 57]
5. C=CC(=O)N1CCCN(C(=O)c2cc(Sc3cnc(NC(=O)c4cccc(CN(C)C)c4)s3)c(C)cc2OC)C[C@H]1C [Compound 48]

["100 to 1000 nM", "1000 to 10000 nM", "1000 to 10000 nM", "≥ 10000 nM", "≥ 10000 nM"]

----------
# target_under_test: TXK (Homo sapiens (Human), UniProt P42681)
# test_summary: IC50 against TXK
# Type: biochemical
measured_metric: IC50

C=CC(=O)N1CCCN(C(=O)c2cc(Sc3cnc(NC(=O)C4CC4)s3)c(C)cc2F)C[C@H]1C [Compound 60] ... 1000 to 10000 nM
C=CC(=O)N1C[C@@H]2C[C@H]1CN2C(=O)c1cc(Sc2cnc(NC(C)=O)s2)c(C)cc1OC [Compound 24] ... 10 to 100 nM

Find the measured IC50 of C=CC(=O)N1CCN(C(=O)c2cc(Sc3cnc(NC(=O)c4cnn(CCN(C)C)c4)s3)c(C)cc2OC)CC1 [Compound 102] and report it. 10 to 100 nM

----------
# target_under_test: JAK3 (Homo sapiens (Human), UniProt P52333)
# test_summary: IC50 against JAK3
# Type: biochemical
measured_metric: IC50

Previously resolved entries follow.
C=CC(=O)N1CCCN(C(=O)c2cc(Sc3cnc(NC(=O)C(C)C)s3)c(C)cc2OC)CC1 ... ≥ 10000 nM
C=CC(=O)N1CCN(C(=O)c2cc(Sc3cnc(NC(=O)c4cnn(CCN(C)C)c4)s3)c(C)cc2OC)CC1 ... 100 to 1000 nM
C=CC(=O)N1CCN(C(=O)c2cc(Sc3cnc(NC(=O)C4CC4)s3)c(Cl)cc2C)C[C@H]1C ... 100 to 1000 nM
C=CC(=O)N1CCN(C(=O)c2cc(Sc3cnc(NC(=O)c4cccc(CN(C)C)c4)s3)c(C)cc2C)C[C@H]1CC ... 100 to 1000 nM
C=CC(=O)N1CCN(C(=O)c2cc(Sc3cnc(NC(=O)C4CC4)s3)c(C)cc2CC)CC1 ... 10 to 100 nM
C=CC(=O)N1CCN(C(=O)c2cc(Sc3cnc(NC(=O)c4ccn(C)c4)s3)c(C)cc2OC)C[C@H]1CC ... 100 to 1000 nM

Hi, could you look up IC50 for each item in my list?
1. C=CC(=O)N1CCN(C(=O)c2cc(Sc3cnc(NC(=O)c4cnn(C)c4)s3)c(C)cc2OC)CC1
2. C=CC(=O)N1CC2(CCN(C(=O)c3cc(Sc4cnc(NC(=O)C5CC5)s4)c(C)cc3OC)C2)C1
3. C=CC(=O)N1CCC2(C1)CN(C(=O)c1cc(Sc3cnc(NC(=O)c4ccsc4)s3)c(C)cc1OC)C2
4. C=CC(=O)N1CCN(C(=O)c2cc(Sc3cnc(NC(=O)c4ccc(N5CCN(C(=O)OC(C)(C)C)CC5)cc4)s3)c(C)cc2OC)CC1
5. C=CC(=O)N1CCN(C(=O)c2cc(Sc3cnc(NC(C)=O)s3)c(C)cc2OC)[C@H](C)C1
6. C=CC(=O)N1CCN(C(=O)c2cc(Sc3cnc(NC(C)=O)s3)c(C)cc2OC)C[C@@H]1C
7. C=CC(=O)N1CCCN(C(=O)c2cc(Sc3cnc(NC(=O)C4CC4)s3)ccc2OC)C[C@H]1C

100 to 1000 nM
10 to 100 nM
10 to 100 nM
100 to 1000 nM
1000 to 10000 nM
100 to 1000 nM
1000 to 10000 nM

----------
# target_under_test: UniProtKB P52333
# test_summary: IC50 against JAK3
# Type: biochemical
measured_metric: IC50

C=CC(=O)N1CCCN(C(=O)c2cc(Sc3cnc(NC(=O)C4CCN(C)CC4)s3)c(C)cc2OC)CC1 [Compound 37] ... ≥ 10000 nM
C=CC(=O)N1CCN(C(=O)c2cc(Sc3cnc(NC(=O)c4cccc(CN(C)C)c4)s3)c(C)cc2OC)CC1 [Compound 14] ... 1000 to 10000 nM
C=CC(=O)N1CCCN(C(=O)c2cc(Sc3cnc(NC(=O)C4CC4)s3)cc(C)c2C)C[C@H]1C [Compound 63] ... ≥ 10000 nM
C=CC(=O)N1CCN(C(=O)c2cc(Sc3cnc(Nc4ccccn4)s3)c(C)cc2OC)C[C@H]1C#N [Compound 153] ... < 10 nM
C=CC(=O)N1CCCN(C(=O)c2cc(Sc3cnc(Nc4ncccc4C)s3)c(C)cc2OC)C[C@H]1C [Compound 136] ... 100 to 1000 nM

Hi, could you look up IC50 for each item in my list?
1. C=CC(=O)N1CCCN(C(=O)c2cc(Sc3cnc(NC(=O)C4CCC4)s3)c(C)cc2OC)C[C@H]1C [Compound 86]
2. C=C(CN(C)C)C(=O)N1CCCN(C(=O)c2cc(Sc3cnc(NC(=O)C4CC4)s3)c(C)cc2OC)C[C@H]1C [Compound 88]
3. C=CC(=O)N1CCN(C(=O)c2cc(Sc3cnc(NC(=O)C4CCC4)s3)c(C)cc2OC)CC1 [Compound 84]

["≥ 10000 nM", "≥ 10000 nM", "1000 to 10000 nM"]
